Target desc: GCK (h) (Homo sapiens)
Construct: purchased Millipore
Sequence (Q12851 1-820): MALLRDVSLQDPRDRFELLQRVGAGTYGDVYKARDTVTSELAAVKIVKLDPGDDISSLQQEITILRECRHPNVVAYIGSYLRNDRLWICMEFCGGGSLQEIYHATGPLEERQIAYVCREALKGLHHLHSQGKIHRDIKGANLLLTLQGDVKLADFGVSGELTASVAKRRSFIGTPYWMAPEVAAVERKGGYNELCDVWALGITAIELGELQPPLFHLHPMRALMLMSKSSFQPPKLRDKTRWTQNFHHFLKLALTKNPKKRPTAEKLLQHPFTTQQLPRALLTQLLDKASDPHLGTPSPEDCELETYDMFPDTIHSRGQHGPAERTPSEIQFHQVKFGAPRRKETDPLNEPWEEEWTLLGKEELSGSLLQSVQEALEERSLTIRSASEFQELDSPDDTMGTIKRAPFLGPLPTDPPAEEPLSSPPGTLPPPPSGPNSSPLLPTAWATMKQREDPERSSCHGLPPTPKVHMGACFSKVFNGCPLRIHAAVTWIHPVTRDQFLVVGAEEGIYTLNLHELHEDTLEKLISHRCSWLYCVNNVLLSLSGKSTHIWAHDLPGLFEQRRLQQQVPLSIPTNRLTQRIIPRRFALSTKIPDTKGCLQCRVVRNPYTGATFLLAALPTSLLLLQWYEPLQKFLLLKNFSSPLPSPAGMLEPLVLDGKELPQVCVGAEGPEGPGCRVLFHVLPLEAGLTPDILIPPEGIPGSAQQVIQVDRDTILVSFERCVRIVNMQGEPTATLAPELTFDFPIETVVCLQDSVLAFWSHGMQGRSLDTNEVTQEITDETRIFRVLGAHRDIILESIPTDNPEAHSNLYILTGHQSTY
Protocol description: Kinase Profiling Assay
Format: biochemical
Protocol conditions: 100 μM
Let's look at some sequences and their measured % activity.
Reported property: % activity (%)

1) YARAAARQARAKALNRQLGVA (Mammalian) [MMI-0200]; 99
2) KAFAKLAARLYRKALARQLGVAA [MMI-0400]; 66
3) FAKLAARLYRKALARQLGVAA [MMI-0300]; 70
4) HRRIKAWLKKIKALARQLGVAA (Mammalian) [MMI-0500]; 30

###

Let's look at some sequences and their measured % activity.
Target desc: Axl (h) (Homo sapiens, UniProt P30530)
Protocol description: Kinase Profiling Assay
Assay type: biochemical
Protocol conditions: 100 μM
Reported property: % activity (%)

1. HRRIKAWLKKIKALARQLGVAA (Mammalian) [MMI-0500]; 12
2. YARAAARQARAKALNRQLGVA (Mammalian) [MMI-0200]; 99
3. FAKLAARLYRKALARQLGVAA [MMI-0300]; 52
4. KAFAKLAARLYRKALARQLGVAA [MMI-0400]; 41

###

Target desc: PKCβI (h) (Homo sapiens, UniProt P05771)
Construct: purchased Millipore
Sequence (P05771 whole entry): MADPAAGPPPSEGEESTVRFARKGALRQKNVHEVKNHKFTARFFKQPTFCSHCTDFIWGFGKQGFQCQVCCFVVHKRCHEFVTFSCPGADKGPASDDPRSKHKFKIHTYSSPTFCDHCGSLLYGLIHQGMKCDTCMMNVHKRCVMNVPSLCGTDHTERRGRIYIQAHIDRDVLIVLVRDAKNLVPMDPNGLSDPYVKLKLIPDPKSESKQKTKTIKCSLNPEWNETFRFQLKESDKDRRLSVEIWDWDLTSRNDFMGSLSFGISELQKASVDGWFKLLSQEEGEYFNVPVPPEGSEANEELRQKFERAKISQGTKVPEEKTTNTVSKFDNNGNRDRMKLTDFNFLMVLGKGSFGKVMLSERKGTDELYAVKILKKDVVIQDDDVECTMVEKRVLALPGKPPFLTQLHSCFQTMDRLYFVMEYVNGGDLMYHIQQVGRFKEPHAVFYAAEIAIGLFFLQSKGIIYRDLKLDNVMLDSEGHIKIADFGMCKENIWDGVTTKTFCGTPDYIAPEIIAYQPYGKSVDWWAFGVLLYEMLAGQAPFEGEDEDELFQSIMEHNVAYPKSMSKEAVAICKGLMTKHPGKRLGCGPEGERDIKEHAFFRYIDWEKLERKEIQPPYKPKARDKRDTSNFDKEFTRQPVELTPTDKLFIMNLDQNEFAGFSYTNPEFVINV
Protocol description: Kinase Profiling Assay
Assay type: biochemical
Protocol conditions: 100 μM
Experimental: Every kinase activity measurement was conducted in duplicate. Specifically, in these assays, a positively charged substrate is phosphorylated with a radiolabeled phosphate group from an ATP if the kinase is not inhibited by an inhibitor peptide. The positively charged substrate then is attracted to a negatively charged filter membrane, quantified with a scintillation counter, and compared to a 100% activity control. […]
Let's look at some sequences and their measured % activity.
Reported property: % activity (%)

1) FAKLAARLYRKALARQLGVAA [MMI-0300]; 78
2) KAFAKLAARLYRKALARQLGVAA [MMI-0400]; 78
3) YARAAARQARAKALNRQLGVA (Mammalian) [MMI-0200]; 98
4) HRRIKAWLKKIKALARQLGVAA (Mammalian) [MMI-0500]; 1

###

Target desc: Tec (h) activated (Homo sapiens, UniProt P42680)
Sequence (P42680 1-631): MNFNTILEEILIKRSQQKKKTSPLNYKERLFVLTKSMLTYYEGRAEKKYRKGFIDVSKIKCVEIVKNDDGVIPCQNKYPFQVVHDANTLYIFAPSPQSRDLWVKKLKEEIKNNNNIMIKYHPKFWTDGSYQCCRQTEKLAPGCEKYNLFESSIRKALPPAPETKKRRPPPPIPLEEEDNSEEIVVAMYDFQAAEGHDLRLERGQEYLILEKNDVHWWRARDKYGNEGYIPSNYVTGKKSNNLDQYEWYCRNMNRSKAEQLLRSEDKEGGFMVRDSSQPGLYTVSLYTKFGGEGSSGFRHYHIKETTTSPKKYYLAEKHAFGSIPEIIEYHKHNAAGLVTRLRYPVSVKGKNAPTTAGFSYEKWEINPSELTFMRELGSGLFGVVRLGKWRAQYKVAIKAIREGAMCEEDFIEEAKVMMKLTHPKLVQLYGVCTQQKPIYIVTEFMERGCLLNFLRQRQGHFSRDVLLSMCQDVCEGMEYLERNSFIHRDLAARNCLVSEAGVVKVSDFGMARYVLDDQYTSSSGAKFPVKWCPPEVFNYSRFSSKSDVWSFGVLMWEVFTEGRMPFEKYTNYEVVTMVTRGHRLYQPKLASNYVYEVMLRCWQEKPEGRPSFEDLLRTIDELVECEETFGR
Protocol description: Kinase Profiling Assay
Format: biochemical
Protocol conditions: 100 μM
Let's look at some sequences and their measured % activity.
Reported property: % activity

1) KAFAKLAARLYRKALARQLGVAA [MMI-0400]; 29%
2) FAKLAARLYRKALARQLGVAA [MMI-0300]; 56%
3) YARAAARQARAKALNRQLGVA (Mammalian) [MMI-0200]; 77%
4) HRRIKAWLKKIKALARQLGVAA (Mammalian) [MMI-0500]; 33%

###

Target desc: LOK (h) (Homo sapiens, UniProt O94804)
Sequence (O94804 whole entry): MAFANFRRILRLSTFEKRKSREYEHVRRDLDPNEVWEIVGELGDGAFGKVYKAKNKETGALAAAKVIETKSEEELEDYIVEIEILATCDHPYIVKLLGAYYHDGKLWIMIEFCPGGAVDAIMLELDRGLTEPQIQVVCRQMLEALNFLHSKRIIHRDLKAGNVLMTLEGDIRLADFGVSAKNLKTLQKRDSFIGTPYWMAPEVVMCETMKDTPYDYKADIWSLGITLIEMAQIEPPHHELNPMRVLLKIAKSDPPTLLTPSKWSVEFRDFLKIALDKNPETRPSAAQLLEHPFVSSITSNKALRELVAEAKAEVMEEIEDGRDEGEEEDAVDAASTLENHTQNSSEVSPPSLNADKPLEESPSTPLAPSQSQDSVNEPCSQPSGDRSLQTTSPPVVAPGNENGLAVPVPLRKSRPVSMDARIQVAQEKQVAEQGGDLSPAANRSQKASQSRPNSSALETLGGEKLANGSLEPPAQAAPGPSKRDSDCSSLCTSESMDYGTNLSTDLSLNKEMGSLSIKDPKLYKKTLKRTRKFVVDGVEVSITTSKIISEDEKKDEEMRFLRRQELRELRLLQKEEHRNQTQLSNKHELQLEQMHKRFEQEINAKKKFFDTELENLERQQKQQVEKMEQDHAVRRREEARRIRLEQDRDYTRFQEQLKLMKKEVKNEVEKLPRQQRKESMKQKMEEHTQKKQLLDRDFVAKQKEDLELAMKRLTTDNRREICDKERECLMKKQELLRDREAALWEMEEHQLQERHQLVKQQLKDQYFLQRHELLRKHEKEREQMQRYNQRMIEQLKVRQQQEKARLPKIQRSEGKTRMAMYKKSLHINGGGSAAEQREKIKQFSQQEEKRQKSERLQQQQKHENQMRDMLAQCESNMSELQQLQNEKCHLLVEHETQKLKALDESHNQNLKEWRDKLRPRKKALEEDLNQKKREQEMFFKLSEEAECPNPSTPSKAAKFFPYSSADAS
Protocol description: Kinase Profiling Assay
Format: biochemical
Protocol conditions: 100 μM
Reported property: % activity (%)

1. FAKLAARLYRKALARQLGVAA [MMI-0300]; 37
2. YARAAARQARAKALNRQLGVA (Mammalian) [MMI-0200]; 67
3. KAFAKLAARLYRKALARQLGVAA [MMI-0400]; 18
4. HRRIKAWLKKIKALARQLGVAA (Mammalian) [MMI-0500]; 7

###

Target desc: Src(T341M) (h) (Homo sapiens, UniProt P12931, T341M)
Protocol description: Kinase Profiling Assay
Type: biochemical
Protocol conditions: 100 μM
Reported property: % activity (%)

1. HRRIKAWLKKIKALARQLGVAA (Mammalian) [MMI-0500]; 59
2. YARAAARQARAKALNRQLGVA (Mammalian) [MMI-0200]; 56
3. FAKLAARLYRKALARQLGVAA [MMI-0300]; 70
4. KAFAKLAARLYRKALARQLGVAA [MMI-0400]; 76

###

Target desc: cSRC (h) (Homo sapiens)
Construct: purchased Millipore
Protocol description: Kinase Profiling Assay
Assay type: biochemical
Protocol conditions: 100 μM
Let's look at some sequences and their measured % activity.
Reported property: % activity (%)

1. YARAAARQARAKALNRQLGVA (Mammalian) [MMI-0200]; 32
2. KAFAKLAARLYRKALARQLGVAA [MMI-0400]; 14
3. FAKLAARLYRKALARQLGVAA [MMI-0300]; 26
4. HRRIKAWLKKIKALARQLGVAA (Mammalian) [MMI-0500]; 30

###

Let's look at some sequences and their measured % activity.
Target desc: Met (h) (Homo sapiens, UniProt P08581)
Protocol description: Kinase Profiling Assay
Assay type: biochemical
Protocol conditions: 100 μM
Reported property: % activity (%)

1. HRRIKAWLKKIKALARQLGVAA (Mammalian) [MMI-0500]; 27
2. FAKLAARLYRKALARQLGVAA [MMI-0300]; 65
3. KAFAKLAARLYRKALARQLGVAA [MMI-0400]; 62
4. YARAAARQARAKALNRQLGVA (Mammalian) [MMI-0200]; 71

###

Target desc: Met(D1246N) (h) (Homo sapiens, UniProt P08581, D1228N)
Protocol description: Kinase Profiling Assay
Format: biochemical
Protocol conditions: 100 μM
Let's look at some sequences and their measured % activity.
Reported property: % activity (%)

1. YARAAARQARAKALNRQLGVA (Mammalian) [MMI-0200]; 149
2. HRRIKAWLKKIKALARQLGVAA (Mammalian) [MMI-0500]; 90
3. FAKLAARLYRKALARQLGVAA [MMI-0300]; 82

###

Let's look at some sequences and their measured % activity.
Target desc: MSSK1 (h) (Homo sapiens, UniProt Q9UPE1)
Construct: purchased Millipore
Sequence (Q9UPE1 whole entry): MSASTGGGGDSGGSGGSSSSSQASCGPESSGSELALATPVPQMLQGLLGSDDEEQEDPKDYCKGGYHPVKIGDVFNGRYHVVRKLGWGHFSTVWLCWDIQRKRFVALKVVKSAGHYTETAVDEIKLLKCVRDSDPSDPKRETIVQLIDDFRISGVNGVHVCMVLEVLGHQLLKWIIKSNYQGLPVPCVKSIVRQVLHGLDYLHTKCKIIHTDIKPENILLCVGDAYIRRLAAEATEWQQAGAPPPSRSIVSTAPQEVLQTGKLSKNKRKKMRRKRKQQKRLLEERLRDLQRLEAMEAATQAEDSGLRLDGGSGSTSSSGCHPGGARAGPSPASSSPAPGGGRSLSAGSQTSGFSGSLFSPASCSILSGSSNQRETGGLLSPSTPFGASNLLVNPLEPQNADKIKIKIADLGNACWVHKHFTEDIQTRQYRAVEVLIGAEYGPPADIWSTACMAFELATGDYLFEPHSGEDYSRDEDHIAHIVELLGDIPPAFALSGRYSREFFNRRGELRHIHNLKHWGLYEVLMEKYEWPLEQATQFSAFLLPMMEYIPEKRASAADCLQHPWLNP
Protocol description: Kinase Profiling Assay
Type: biochemical
Protocol conditions: 100 μM
Reported property: % activity

1. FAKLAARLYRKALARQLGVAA [MMI-0300]; 77%
2. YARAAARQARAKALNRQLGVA (Mammalian) [MMI-0200]; 100%
3. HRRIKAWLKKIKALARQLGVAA (Mammalian) [MMI-0500]; 22%

These measurements were taken from patent US10500249B2.
